Test system: CEM cells HIV-1 protection, formazan growth assay
Assay: NCI AIDS Antiviral Assay
Settings: measured here: growth of uninfected CEM cells
Kindly supply the reported IC50 values for the records listed here.
Numbers only, in µM.

Record IC50 per entry; entries follow.
1. CC(C)c1cc(=O)oc2c3c(ccc12)OC(C)(C)[C@H](OC(=O)C12CCC(C)(C(=O)O1)C2(C)C)[C@@H]3OC(=O)C12CCC(C)(C(=O)O1)C2(C)C (stereo not given in full)
2. O=[N+]([O-])c1ccccc1S(=O)(=O)Oc1ccccc1
3. O=C(O)c1ccc(CSc2ccccc2)c([N+](=O)[O-])c1

1. 33.9
2. 47.9
3. 245
